Quick reference for Ki among some molecules
- assayed.target: Cytochrome P450 2A6 (Homo sapiens, UniProt P11509)
- method: Competitive inhibition of CYP2A6 (unknown origin)
- Assay type: ADME
// note: answer is a bare numeric in nM

Example results:
{"molecule": "CCCOc1cccc2oc(=O)ccc12", "assayed.target": "Cytochrome P450 2A6 (Homo sapiens, UniProt P11509)", "value.unit": "nM", "Ki": 540}
{"molecule": "C=CCOc1cccc2oc(=O)ccc12", "assayed.target": "Cytochrome P450 2A6 (Homo sapiens, UniProt P11509)", "value.unit": "nM", "Ki": 30}
{"molecule": "COc1cccc2ccc(=O)oc12", "assayed.target": "Cytochrome P450 2A6 (Homo sapiens, UniProt P11509)", "value.unit": "nM", "Ki": 4000}
{"molecule": "C#CCOc1cccc2oc(=O)ccc12", "assayed.target": "Cytochrome P450 2A6 (Homo sapiens, UniProt P11509)", "value.unit": "nM", "Ki": 10}

Query: What value of Ki has been recorded for this entry: `CCOc1cccc2oc(=O)ccc12`
Response: 80

Query: Can you look up the measured Ki of `COc1ccc2oc(=O)ccc2c1` for me?
Response: 250

----------
- Test system: CYP3A4 / CYP2A6
- method: Selectivity ratio of Ki for non-competitive inhibition of CYP3A4 (unknown origin) to ratio of Ki for competitive inhibition of CYP2A6 (unknown origin)
- Assay type: ADME
- conditions: human; read-out: Ratio Ki
readout.kind: selectivity ratio
Please reply with the number alone, leaving off any unit.

Query: What value of measured selectivity ratio is listed for `CCOc1cccc2oc(=O)ccc12` ?
Response: 5300

----------
- assayed.target: Cytochrome P450 3A4 (Homo sapiens)
- Sequence (P08684 whole entry): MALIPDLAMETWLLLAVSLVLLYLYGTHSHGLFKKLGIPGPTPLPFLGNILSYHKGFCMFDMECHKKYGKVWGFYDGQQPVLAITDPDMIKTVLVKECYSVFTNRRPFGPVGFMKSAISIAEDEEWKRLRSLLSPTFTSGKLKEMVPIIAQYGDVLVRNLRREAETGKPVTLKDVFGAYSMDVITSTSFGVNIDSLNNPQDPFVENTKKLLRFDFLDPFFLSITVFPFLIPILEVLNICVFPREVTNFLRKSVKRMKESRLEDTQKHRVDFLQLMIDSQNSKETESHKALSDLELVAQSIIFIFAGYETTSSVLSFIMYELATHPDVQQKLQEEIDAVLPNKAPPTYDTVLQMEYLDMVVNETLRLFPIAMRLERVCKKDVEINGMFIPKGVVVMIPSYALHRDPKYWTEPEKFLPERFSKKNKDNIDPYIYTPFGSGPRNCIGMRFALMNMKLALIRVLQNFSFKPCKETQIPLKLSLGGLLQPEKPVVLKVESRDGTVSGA
pIC50: −log10 of the molar value.
readout.kind: pIC50

Query: Requested read-out pIC50, target or system Cytochrome P450 3A4 (Homo sapiens), entry `COc1cccc2ccc(=O)oc12`
Response: < 3.60

----------
- assayed.target: CYP2A6 (Homo sapiens, UniProt P11509)
- Sequence (P11509 whole entry): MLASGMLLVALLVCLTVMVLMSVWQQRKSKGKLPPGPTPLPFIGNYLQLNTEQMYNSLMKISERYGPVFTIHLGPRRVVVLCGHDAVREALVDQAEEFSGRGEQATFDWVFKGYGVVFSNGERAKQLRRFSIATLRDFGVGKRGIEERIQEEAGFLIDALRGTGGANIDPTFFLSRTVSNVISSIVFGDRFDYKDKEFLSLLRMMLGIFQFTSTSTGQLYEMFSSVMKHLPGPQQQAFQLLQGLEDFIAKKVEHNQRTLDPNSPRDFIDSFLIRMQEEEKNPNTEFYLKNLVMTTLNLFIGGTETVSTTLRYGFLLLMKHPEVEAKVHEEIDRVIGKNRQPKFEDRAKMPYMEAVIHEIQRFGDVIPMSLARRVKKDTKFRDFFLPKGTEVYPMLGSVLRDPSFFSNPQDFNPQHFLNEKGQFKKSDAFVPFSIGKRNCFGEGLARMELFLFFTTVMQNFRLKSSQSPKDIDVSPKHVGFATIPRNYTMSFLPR
- method: Inhibition of CYP2A6 (unknown origin) assessed as residual activity preincubated for 10 mins
- Format: ADME
readout.kind: activity (%)
Give the value, in units of %, as a plain number.

Here are 2 molecules together with their reported answers.
{"molecule": "COc1cccc2ccc(=O)oc12", "value.unit": "%", "activity": 62}
{"molecule": "COc1c2occc2cc2ccc(=O)oc12 [METHOXSALEN]", "value.unit": "%", "activity": 52}

Please turn your attention to the following entry.
Query: Given the molecule `C#CCOc1cccc2oc(=O)ccc12` , what is its reported activity?
Response: 57
